Cited source for all entries: PubChem BioAssay AID687043

Tested on: Hepatitis C virus NS3 helicase
Assay: HCV NS3 helicase inhibitors, primary screen, biochemical, fluorescence polarization, ChemBridge library (AID 687043)
Conditions: NS3h Cy5-dT15 DNA binding, at 100 µM, hits give high values
In all, about 16,000 compounds went through this assay and about 250 (1.6%) were called active. The sample as a whole holds a higher share of actives than the screen did.
Entries and their inhibition values follow.
QUANTITY_KIND: inhibition

>  <COMPOUND>
Cn1c(=O)n(CCOc2ccc(Br)cc2)c2ccccc21

>  <QUANTITY_KIND>
inhibition

>  <REPORTED_MEASUREMENT>
13.9% (inactive)

$$$$
>  <COMPOUND>
CCC(=O)/C=C1\Sc2ccccc2N1CC

>  <QUANTITY_KIND>
inhibition

>  <REPORTED_MEASUREMENT>
-1.3% (inactive)

$$$$
>  <COMPOUND>
COc1cc(/C=C2/C(=O)NC(=O)N(c3ccc(C)cc3)C2=O)ccc1OCCOc1ccc([N+](=O)[O-])cc1

>  <QUANTITY_KIND>
inhibition

>  <REPORTED_MEASUREMENT>
20.3% (inactive)

$$$$
>  <COMPOUND>
COc1ccc(CCNC(=O)C(=O)Nc2ccccc2C)cc1OC

>  <QUANTITY_KIND>
inhibition

>  <REPORTED_MEASUREMENT>
15.5% (inactive)

$$$$
>  <COMPOUND>
Cc1ccc(/C=N\NC(=O)c2cccnc2)o1

>  <QUANTITY_KIND>
inhibition

>  <REPORTED_MEASUREMENT>
1.6% (inactive)

$$$$
>  <COMPOUND>
Cc1ccc(COc2ccc3oc(C)c(C(=O)O)c3c2)cc1

>  <QUANTITY_KIND>
inhibition

>  <REPORTED_MEASUREMENT>
5.2% (inactive)

$$$$
>  <COMPOUND>
CC(Oc1cccc(Cl)c1)C(=O)Nc1ccccc1C(=O)N1CCN(Cc2ccccc2)CC1 (configuration not stated)

>  <QUANTITY_KIND>
inhibition

>  <REPORTED_MEASUREMENT>
0.3% (inactive)

$$$$
>  <COMPOUND>
CCOc1cccc2c1N(C(=O)c1ccc(OC)cc1)C(C)(C)C(=S)C2=C1SC(C(=O)OC)=C(C(=O)OC)S1

>  <QUANTITY_KIND>
inhibition

>  <REPORTED_MEASUREMENT>
0.9% (inactive)

$$$$
>  <COMPOUND>
COc1cc(C=C2C(=O)NC(=O)NC2=O)ccc1OCCOc1ccc([N+](=O)[O-])cc1

>  <QUANTITY_KIND>
inhibition

>  <REPORTED_MEASUREMENT>
52.6% (active)

$$$$
>  <COMPOUND>
O=C(Cn1cncn1)c1ccc(F)c(F)c1

>  <QUANTITY_KIND>
inhibition

>  <REPORTED_MEASUREMENT>
-2.3% (inactive)

$$$$
>  <COMPOUND>
CCN(CC)c1ccc(NC(=O)/C(=C\c2ccccc2)NC(C)=O)cc1

>  <QUANTITY_KIND>
inhibition

>  <REPORTED_MEASUREMENT>
56.6% (active)

$$$$
>  <COMPOUND>
Cn1c(=O)c2c(nc(Sc3ncn[nH]3)n2C)n(C)c1=O

>  <QUANTITY_KIND>
inhibition

>  <REPORTED_MEASUREMENT>
-6.5% (inactive)

$$$$
>  <COMPOUND>
CC(C)C(=O)Nc1ccc2c3c(cccc13)CC2

>  <QUANTITY_KIND>
inhibition

>  <REPORTED_MEASUREMENT>
0.3% (inactive)

$$$$
>  <COMPOUND>
COc1ccc(C2(CNC(=O)c3ccc(F)cc3)CCCC2)cc1OC

>  <QUANTITY_KIND>
inhibition

>  <REPORTED_MEASUREMENT>
8.8% (inactive)

$$$$
>  <COMPOUND>
CCOC(=O)C1=C(C)N=c2s/c(=C\c3ccc(C)o3)c(=O)n2C1c1cccc(OC)c1 (configuration not stated)

>  <QUANTITY_KIND>
inhibition

>  <REPORTED_MEASUREMENT>
20.2% (inactive)

$$$$
>  <COMPOUND>
CCN(CC)c1ccc(/C=C2\C(=O)NC(=O)N(C)C2=O)cc1

>  <QUANTITY_KIND>
inhibition

>  <REPORTED_MEASUREMENT>
27.7% (inactive)

$$$$
>  <COMPOUND>
Cc1cc(I)ccc1NC(=O)COc1ccc(Br)cc1

>  <QUANTITY_KIND>
inhibition

>  <REPORTED_MEASUREMENT>
8% (inactive)

$$$$
>  <COMPOUND>
COc1ccccc1N1CCN(/N=C(/C)c2ccncc2)CC1

>  <QUANTITY_KIND>
inhibition

>  <REPORTED_MEASUREMENT>
-3.7% (inactive)

$$$$
>  <COMPOUND>
CCOc1ccc(NC(=O)CC2S/C(=N/N=C3/CCCc4ccccc43)NC2=O)cc1 (configuration not stated)

>  <QUANTITY_KIND>
inhibition

>  <REPORTED_MEASUREMENT>
16.3% (inactive)

$$$$
>  <COMPOUND>
Cc1ccc(C(=O)N/C(=C/c2cccc3ccccc23)C(=O)N2CCCC2)cc1

>  <QUANTITY_KIND>
inhibition

>  <REPORTED_MEASUREMENT>
-0.3% (inactive)

$$$$
>  <COMPOUND>
Clc1ccc(Cn2c(CNc3ccc(Cl)cc3)nc3ccccc32)cc1

>  <QUANTITY_KIND>
inhibition

>  <REPORTED_MEASUREMENT>
9.9% (inactive)

$$$$
>  <COMPOUND>
CCOC(=O)c1ccc(-c2ccc(/C=C(/C#N)C(=O)Nc3ccc4ccccc4c3)o2)cc1

>  <QUANTITY_KIND>
inhibition

>  <REPORTED_MEASUREMENT>
-1.8% (inactive)

$$$$
